- SYSTEM TESTED: T1, At14-3-3 λ^N233A (Arabidopsis thaliana, UniProt P48349 1-248, N233A)
- T1 sequence: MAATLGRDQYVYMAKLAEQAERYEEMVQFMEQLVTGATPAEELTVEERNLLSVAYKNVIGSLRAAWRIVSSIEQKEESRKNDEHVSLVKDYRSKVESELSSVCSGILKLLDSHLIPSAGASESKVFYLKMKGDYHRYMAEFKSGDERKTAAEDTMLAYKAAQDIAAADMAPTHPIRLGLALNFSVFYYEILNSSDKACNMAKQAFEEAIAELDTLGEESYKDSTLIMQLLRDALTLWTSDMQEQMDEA
- MEASUREMENT DESCRIPTION: ITC
Square brackets hold non-standard residues; d marks the D form. Ends that are not written are not given here. pT = C[C@@H](OP(=O)(O)O)[C@H](N)C(=O)O; pS = N[C@@H](COP(=O)(O)O)C(=O)O
MEASUREMENT NAME: Kd (µM)
Response body: numeric value in µM, unit text excluded.

Here's what some known entries look like.
INSERT INTO measurements (binder, unit_annotation, readout_value) VALUES
  ('RISN[pS]AP [pBZR1^169−175 peptide]', 'µM', 5),
  ('RGELF[pS]AP [pBKI1^265−272 peptide]', 'µM', 3.7);

Now examine the next entry.
Problem: Given RKL[pT]FA [pBRI1^869−874 peptide] , state its recorded Kd.
Solution: 40
